// data source = the supplement of paper PMC9170038

Give apparent KD of MS2 coat protein for every item shown.
Test system: MS2 coat protein
Experiment: apparent KD of MS2 coat protein; designed switch direction (-1 OFF switch, 1 ON switch): -1; higher = weaker reporter binding
Study conditions: input ligand: FMN 200 uM
Give bare numbers, in µM.

Here's what some known entries look like.
Suppose we examine the sequence GUACUGACAGGAUAUACAUGAGGAUCACCCAUGUGCCCUUAAAGAUGCAAAGCAUCAAGUAGAAGGGUCUGUAC [Omei Ex3 Model Bachelor's Dilema v21] (Eterna round: R97, puzzle: Exclusion 3) ; what apparent KD of MS2 coat protein value has been reported?
0.053

Suppose we examine the sequence AGUAACUCAUGAGGAUAUCACAUGAGGAUCACCCAUGUAUAGCGCGCUAUGCUAGUCCUCGUAUAUGAGAAGGUAUGAUAAAUG [JL ViennaUCT Quve mod 3] (Eterna round: R96, puzzle: Exclusion NG 2) ; what apparent KD of MS2 coat protein value has been reported?
0.022

Suppose we examine the sequence GGCACACAUGUAGGAUAUCUGCACGAUUAGUGCAGAGAAGGACAUGAGGAUCACCCAUGUAAUUAAGAUCAAUUAUUAAGUGCC [ENG1/3-A1] (Eterna round: R96, puzzle: Exclusion NG 1) ; what apparent KD of MS2 coat protein value has been reported?
0.468

Suppose we examine the sequence CGCUAUGCCGAGGAUAUUCUUGGUAUGCAUCUAGGAGAAGGCGGCACAUGAGGAUCACCCAUGUCAAAACAUAU [Eternabot (L1) Solution 97] (Eterna round: R97, puzzle: Exclusion 6) ; what apparent KD of MS2 coat protein value has been reported?
0.029

Suppose we examine the sequence UCAUGUCCUGAGGAUAUGCAGCGGAUAAACGCAGCAGAAGGCAGGACAUGAGGAUCACCCAUGUGUGCCUUCUA [Exclusion 6 Mod5 of JL of Mod of Letion by ViennaUCT] (Eterna round: R97, puzzle: Exclusion 6) ; what apparent KD of MS2 coat protein value has been reported?
0.0183

// each listed sequence needs a value for apparent KD of MS2 coat protein
1. UGAGCAUCAGGAUAUACAAGGCGACCGUGAGGUCGAAGGUUACAUGAGGAUCACCCAUGUAGAAGGGAUGUUCU [jl-ex2-4.11] (Eterna round: R97, puzzle: Exclusion 2)
2. CUUGUGUAAGGAUAUGCCUGGCCGUGAGGCCAGAUUGAAUAGCAGAAGGUACAUGAGGAUCACCCAUGUACGGG [jl-ex4-4.60 ViennaUCT mod] (Eterna round: R97, puzzle: Exclusion 4)
3. CUAAAUCAUGUAGGAUAUGCGUAGCGAAGCUAUGCAGAAGGACAUGAGGAUCACCCAUGUUCUUCCGUCUGCGUACAGACGGAA [Mat - Exclusion NG 1 - Mod of JL - D29] (Eterna round: R96, puzzle: Exclusion NG 1)
4. UACAUGAGGAUCACCCAUGUCUUUUCGUGUAUGGUACCCAUCUAGGAUAUCGUGUUAUUUAACCACGAGAAGGAGAGUAUCAAU [MOD5 Solution 21 by JMF] (Eterna round: R96, puzzle: Exclusion NG 3)

1. 0.0494
2. 0.256
3. 0.337
4. 0.0656
